- measured_on: CYP2D6 (Homo sapiens)
- Construct: host or cells: E. coli
- run_description: CYP450 inhibition, fluorescent substrate assay, CYP2D6
- Assay type: biochemical
- assay_setup: pH 7.4, 10 μM test compound, substrate AMMC 3 μM, read-out: 2D6-AMMC % inh.
Recorded inhibition at 45 min, 10 μM values for a group of compounds are listed next.
Please state the figure in %; there is no need to write the unit.

CC(C)CN(C[C@@H](O)[C@H](Cc1ccccc1)NC(=O)OCc1cncs1)C(=O)c1ccc2c(c1)OCO2    73

Then this compound:
inhibition at 45 min, 10 μM reading for CC(C)CN(C[C@@H](O)[C@H](Cc1ccccc1)NC(=O)OCc1cncs1)C(=O)c1ccco1 : 62

====

- measured_on: CYP2D6 (Homo sapiens, UniProt P10635)
- Construct: host or cells: E. coli
- Sequence (P10635 whole entry): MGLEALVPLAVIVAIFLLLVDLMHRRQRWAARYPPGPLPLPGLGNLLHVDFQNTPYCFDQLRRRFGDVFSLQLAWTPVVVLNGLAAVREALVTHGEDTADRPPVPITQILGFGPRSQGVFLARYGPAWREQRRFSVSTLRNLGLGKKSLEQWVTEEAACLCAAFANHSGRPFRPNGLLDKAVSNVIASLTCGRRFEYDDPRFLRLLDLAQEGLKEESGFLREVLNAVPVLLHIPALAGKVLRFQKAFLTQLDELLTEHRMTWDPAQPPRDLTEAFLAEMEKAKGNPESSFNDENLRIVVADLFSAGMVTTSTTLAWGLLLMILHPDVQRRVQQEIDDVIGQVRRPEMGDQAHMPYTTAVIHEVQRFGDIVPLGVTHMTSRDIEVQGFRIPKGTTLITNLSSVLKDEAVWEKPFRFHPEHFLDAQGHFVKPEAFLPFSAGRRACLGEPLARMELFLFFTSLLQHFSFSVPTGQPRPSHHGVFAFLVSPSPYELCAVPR
- run_description: CYP450 inhibition, fluorescent substrate assay, CYP2D6
- Type: biochemical
- assay_setup: E. coli expressed CYP2D6, pH 7.4, probe AMMC (3 μM), 10 μM test compound, substrate AMMC 3 μM, read-out: 2D6-AMMC % inh.
Recorded inhibition at 45 min, 10 μM values for a group of compounds are listed next.
Please state the figure in %; there is no need to write the unit.

inhibition at 45 min, 10 μM reading for CC(C)CN(C[C@@H](O)[C@H](Cc1ccccc1)NC(=O)OCc1cncs1)C(=O)c1cccc(F)c1 : 53

inhibition at 45 min, 10 μM reading for CC(C)CN(C[C@@H](O)[C@H](Cc1ccccc1)NC(=O)OCc1cncs1)C(=O)c1ccc(F)cc1 : 65

inhibition at 45 min, 10 μM reading for CC(C)CN(C[C@@H](O)[C@H](Cc1ccccc1)NC(=O)OCc1cncs1)C(=O)c1ccccn1 : 66

inhibition at 45 min, 10 μM reading for CC(C)CN(C[C@@H](O)[C@H](Cc1ccccc1)NC(=O)OCc1cncs1)C(=O)c1ccc(C(F)(F)F)cc1 : 79

====

Recorded inhibition at 15 min, 10 μM values for a group of compounds are listed next.
- measured_on: CYP1A2 (Homo sapiens)
- Construct: host or cells: E. coli
- Sequence (P05177 1-516): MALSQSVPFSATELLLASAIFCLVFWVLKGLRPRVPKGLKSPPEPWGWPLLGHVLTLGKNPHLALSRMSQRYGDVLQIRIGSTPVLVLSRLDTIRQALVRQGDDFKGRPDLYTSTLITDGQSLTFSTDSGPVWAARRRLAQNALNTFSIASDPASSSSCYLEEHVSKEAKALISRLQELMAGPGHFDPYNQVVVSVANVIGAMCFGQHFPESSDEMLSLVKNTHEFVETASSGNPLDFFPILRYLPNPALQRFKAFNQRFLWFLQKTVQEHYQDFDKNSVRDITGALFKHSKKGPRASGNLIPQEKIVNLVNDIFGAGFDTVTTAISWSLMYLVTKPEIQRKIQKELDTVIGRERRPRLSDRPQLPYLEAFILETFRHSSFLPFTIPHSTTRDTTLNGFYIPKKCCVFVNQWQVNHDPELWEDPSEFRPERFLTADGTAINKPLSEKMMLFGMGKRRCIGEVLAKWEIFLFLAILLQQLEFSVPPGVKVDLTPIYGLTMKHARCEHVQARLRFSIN
- run_description: CYP450 inhibition, fluorescent substrate assay, CYP1A2
- Assay type: biochemical
- assay_setup: E. coli expressed CYP1A2, pH 7.4, probe CEC (5 μM), 10 μM test compound, substrate CEC 5 μM, read-out: 1A2-CEC % inh.
Please state the figure in %; there is no need to write the unit.

CC(C)CN(C[C@@H](O)[C@H](Cc1ccccc1)NC(=O)OCc1cncs1)C(=O)c1cccc(Br)c1 [Compound C17]    55
CC(C)CN(C[C@@H](O)[C@H](Cc1ccccc1)NC(=O)OCc1cncs1)C(=O)C1CCC(F)(F)CC1 [Compound C23]    22
CC(C)CN(C[C@@H](O)[C@H](Cc1ccccc1)NC(=O)OCc1cncs1)C(=O)OCc1cncs1 [Compound C25]    25
CC(C)CN(C[C@@H](O)[C@H](Cc1ccccc1)NC(=O)OCc1cncs1)C(=O)c1ccc(Cl)cc1 [Compound C16]    50
CC(C)CN(C[C@@H](O)[C@H](Cc1ccccc1)NC(=O)OCc1cncs1)C(=O)c1ccc(F)cc1 [Compound C6]    41
CC(C)CN(C[C@@H](O)[C@H](Cc1ccccc1)NC(=O)OCc1cncs1)C(=O)c1ccncc1 [Compound C8]    4
CC(C)CN(C[C@@H](O)[C@H](Cc1ccccc1)NC(=O)OCc1cncs1)C(=O)c1cccc(F)c1 [Compound C19]    43
CC(C)CN(C[C@@H](O)[C@H](Cc1ccccc1)NC(=O)OCc1cncs1)C(=O)c1ccc(Br)cc1 [Compound C18]    63

inhibition at 15 min, 10 μM reading for Cc1ccc(C(=O)N(CC(C)C)C[C@@H](O)[C@H](Cc2ccccc2)NC(=O)OCc2cncs2)cc1 [Compound C3] : 20

inhibition at 15 min, 10 μM reading for CC(C)(C)CN(C[C@@H](O)[C@H](Cc1ccccc1)NC(=O)OCc1cncs1)C(=O)c1ccncc1 [Compound C22] : 0

inhibition at 15 min, 10 μM reading for CC(C)CN(C[C@@H](O)[C@H](Cc1ccccc1)NC(=O)OCc1cncs1)C(=O)c1cccc(C(F)(F)F)c1 [Compound C11] : 45

inhibition at 15 min, 10 μM reading for CC(C)CN(C[C@@H](O)[C@H](Cc1ccccc1)NC(=O)OCc1cncs1)C(=O)c1ccc2occc2c1 [Compound C2] : 40

inhibition at 15 min, 10 μM reading for COc1cccc(C(=O)N(CC(C)C)C[C@@H](O)[C@H](Cc2ccccc2)NC(=O)OCc2cncs2)c1 [Compound C7] : 13

inhibition at 15 min, 10 μM reading for CC(C)CN(C[C@@H](O)[C@H](Cc1ccccc1)NC(=O)OCc1cncs1)C(=O)CCc1cncs1 [Compound C24] : 13

inhibition at 15 min, 10 μM reading for Cc1cccc(C(=O)N(CC(C)C)C[C@@H](O)[C@H](Cc2ccccc2)NC(=O)OCc2cncs2)c1 [Compound C10] : 33

inhibition at 15 min, 10 μM reading for O=C(N[C@@H](Cc1ccccc1)[C@H](O)CN(CC1CCCCC1)C(=O)c1ccncc1)OCc1cncs1 [Compound C27] : 10

inhibition at 15 min, 10 μM reading for COc1ccc(C(=O)N(CC(C)C)C[C@@H](O)[C@H](Cc2ccccc2)NC(=O)OCc2cncs2)cc1 [Compound C5] : 14

inhibition at 15 min, 10 μM reading for CC(C)CN(C[C@@H](O)[C@H](Cc1ccccc1)NC(=O)OCc1cncs1)C(=O)c1cnc2ccccc2n1 [Compound C12] : 21

inhibition at 15 min, 10 μM reading for CC(C)CN(C[C@@H](O)[C@H](Cc1ccccc1)NC(=O)OCc1cncs1)C(=O)c1ccc[nH]1 [Compound C14] : 56

inhibition at 15 min, 10 μM reading for CC(C)CN(C[C@@H](O)[C@H](Cc1ccccc1)NC(=O)OCc1cncs1)C(=O)c1cccc(Cl)c1 [Compound C15] : 51

inhibition at 15 min, 10 μM reading for CC(C)CN(C[C@@H](O)[C@H](Cc1ccccc1)NC(=O)OCc1cncs1)C(=O)c1ccc(C(F)(F)F)cc1 [Compound C4] : 62

====

Recorded inhibition at 30 min, 10 μM values for a group of compounds are listed next.
- measured_on: CYP2C19 (Homo sapiens)
- Construct: host or cells: E. coli
- Sequence (P33261 whole entry): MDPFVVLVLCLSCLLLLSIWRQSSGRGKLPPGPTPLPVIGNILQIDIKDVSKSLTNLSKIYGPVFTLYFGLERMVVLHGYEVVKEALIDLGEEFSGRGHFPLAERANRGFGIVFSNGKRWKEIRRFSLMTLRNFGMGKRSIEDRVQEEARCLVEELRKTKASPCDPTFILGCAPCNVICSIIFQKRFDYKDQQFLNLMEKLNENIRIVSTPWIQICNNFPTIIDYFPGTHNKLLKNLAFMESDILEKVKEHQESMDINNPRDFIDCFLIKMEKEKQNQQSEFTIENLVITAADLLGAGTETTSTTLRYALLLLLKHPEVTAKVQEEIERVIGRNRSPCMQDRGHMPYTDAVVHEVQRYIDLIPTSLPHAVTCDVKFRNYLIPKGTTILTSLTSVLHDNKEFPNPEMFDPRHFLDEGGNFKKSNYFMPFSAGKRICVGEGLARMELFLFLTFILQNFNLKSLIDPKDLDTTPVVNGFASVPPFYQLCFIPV
- run_description: CYP450 inhibition, fluorescent substrate assay, CYP2C19
- Type: biochemical
- assay_setup: E. coli expressed CYP2C19, pH 7.4, probe CEC (25 μM), 10 μM test compound, substrate CEC 25 μM, read-out: 2C19-CEC % inh.
Please state the figure in %; there is no need to write the unit.

O=C(N[C@@H](Cc1ccccc1)[C@H](O)CN(CC1CCCCC1)C(=O)c1ccncc1)OCc1cncs1    96

Result for COc1ccc(C(=O)N(CC(C)C)C[C@@H](O)[C@H](Cc2ccccc2)NC(=O)OCc2cncs2)cc1 , tested on CYP2C19 (Homo sapiens), inhibition at 30 min, 10 μM: 86

Result for CC(C)CN(C[C@@H](O)[C@H](Cc1ccccc1)NC(=O)OCc1cncs1)C(=O)c1cccc(F)c1 , tested on CYP2C19 (Homo sapiens), inhibition at 30 min, 10 μM: 77

Result for CC(C)CN(C[C@@H](O)[C@H](Cc1ccccc1)NC(=O)OCc1cncs1)C(=O)c1ccc(Br)cc1 , tested on CYP2C19 (Homo sapiens), inhibition at 30 min, 10 μM: 93

Result for Cc1cccc(C(=O)N(CC(C)C)C[C@@H](O)[C@H](Cc2ccccc2)NC(=O)OCc2cncs2)c1 , tested on CYP2C19 (Homo sapiens), inhibition at 30 min, 10 μM: 92

Result for CC(C)CN(C[C@@H](O)[C@H](Cc1ccccc1)NC(=O)OCc1cncs1)C(=O)c1ccc(Cl)cc1 , tested on CYP2C19 (Homo sapiens), inhibition at 30 min, 10 μM: 90

Result for CC(C)CN(C[C@@H](O)[C@H](Cc1ccccc1)NC(=O)OCc1cncs1)C(=O)c1ccc[nH]1 , tested on CYP2C19 (Homo sapiens), inhibition at 30 min, 10 μM: 87

Taken from patent US8664391B2.
